Target: T1, recombinant human IL-6 (human, UniProt P05231 30-212)
T1 construct: Bought from R&D Systems (206-IL-010); Biotinylated or coupled to beads in some assays; also called hIL-6; rhIL-6
T1 sequence (P05231 30-212 limits assumed): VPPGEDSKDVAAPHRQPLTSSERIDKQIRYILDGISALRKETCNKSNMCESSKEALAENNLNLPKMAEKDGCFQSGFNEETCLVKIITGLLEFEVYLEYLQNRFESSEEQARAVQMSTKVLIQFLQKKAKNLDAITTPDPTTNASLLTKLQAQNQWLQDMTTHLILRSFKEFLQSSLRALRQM
Assay: calculated, KinExA 3000
test_readout: Improvement Ratio of koff (against chimeric antibody)

As a guide, the following entries are already answered.
AME-18a (antibody, V domains shown, Tested as IgG; also called 130) VH: EVQLVESGGGLVQPGGSLRLSCAASGFQFSPFAMSWVRQAPGKGLEWVAKISPGGSWTYYSDTVTGRFTISRDNAKNSLYLQMNSLRAEDTAVYYCARQLWGYYALDIWGQGTTVTVSS VL: EIVLTQSPATLSLSPGERATLSCSASSSVSYMYWYQQKPGQAPRLLIYDFSNLASGIPARFSGSGSGTDFTLTISSLEPEDFAVYYCMQWSGYPYTFGGGTKVEIK: 5.4 fold
AME-19a (antibody, V domains shown, Tested as IgG; also called 136; human engineered anti-IL-6 (clone AME-19a) antibody) VH: EVQLVESGGGLVQPGGSLRLSCAASGFTFSPFAMSWVRQAPGKGLEWVAKISPGGSWTYYSDTVTGRFTISRDNAKNSLYLQMNSLRAEDTAVYYCARQLWGYYALDIWGQGTTVTVSS VL: EIVLTQSPATLSLSPGERATLSCSASISVSYMYWYQQKPGQAPRLLIYDMSNLASGIPARFSGSGSGTDFTLTISSLEPEDFAVYYCMQWSGYPYTFGGGTKVEIK: 65 fold
AME-20b (antibody, V domains shown, Tested as IgG; also called 140) VH: EVQLVESGGGLVQPGGSLRLSCAASGFQFSSFAMSWVRQAPGKGLEWVAKISPGGSYTYYSDTVTGRFTISRDNAKNSLYLQMNSLRAEDTAVYYCARQLWGYYALDIWGQGTTVTVSS VL: EIVLTQSPATLSLSPGERATLSCSASISVSYMYWYQQKPGQAPRLLIYDMSNLASGIPARFSGSGSGTDFTLTISSLEPEDFAVYYCMQWSGYPYTFGGGTKVEIK: 3.5 fold

The reported value for AME-23a (antibody, V domains shown, Tested as IgG; also called 143) VH: EVQLVESGGGLVQPGGSLRLSCAASGFQFSSFAMSWVRQAPGKGLEWVAKISPGGSYTYYSDTVTGRFTISRDNAKNSLYLQMNSLRAEDTAVYYCARQLWGYYALDFWGQGTTVTVSS VL: EIVLTQSPATLSLSPGERATLSCSASYSVSYMYWYQQKPGQAPRLLIYDMSNLASGIPARFSGSGSGTDFTLTISSLEPEDFAVYYCMQWSGYPYTFGGGTKVEIK in terms of Improvement Ratio of koff (against chimeric antibody) is 295 fold

AME-16 (antibody, V domains shown, Tested as IgG; also called AME-A16; 106) VH: EVQLVESGGGLVQPGGSLRLSCAASGFTFSSFAMSWVRQAPGKGLEWVAKISPGGSYTYYPDTVTGRFTISRDNAKNSLYLQMNSLRAEDTAVYYCARQLWGYYALDYWGQGTTVTVSS VL: EIVLTQSPATLSLSPGERATLSCSASSSVSYMYWYQQKPGQAPRLLIYDTSNLASGIPARFSGSGSGTDFTLTISSLEPEDFAVYYCSQWSGYPYTFGGGTKVEIK has a reported Improvement Ratio of koff (against chimeric antibody) of 15.7 fold

Improvement Ratio of koff (against chimeric antibody) in this record for AME-22a (antibody, V domains shown, Tested as IgG; also called 150) VH: EVQLVESGGGLVQPGGSLRLSCAASGFQFSPFAMSWVRQAPGKGLEWVAKISPGGSWTYYPDTDTGRFTISRDNAKNSLYLQMNSLRAEDTAVYYCARQLWGYYALDFWGQGTTVTVSS VL: EIVLTQSPATLSLSPGERATLSCSASYSVSYMYWYQQKPGQAPRLLIYDFSNLASGIPARFSGSGSGTDFTLTISSLEPEDFAVYYCMQWSGYPYTFGGGTKVEIK : 11.8 fold
